Test system: LXFL 529 NSCLC
test protocol: NCI tumour cell line growth inhibition, 48 h
Listed compounds paired with reported TGI

Please review the entries below; each comes with its answer.
>  <compound>
CCC1OCCN1C(C)C (centres undefined)

>  <TGI>
> 100 µM

$$$$
>  <compound>
Cc1cc(N(CCC#N)S(=O)(=O)c2ccccc2)ccc1C=O

>  <TGI>
> 100 µM

$$$$
>  <compound>
COC(=O)/C(=N\NC(=O)c1ccccc1O)C(C#N)c1ccc(Cl)cc1 (centres undefined)

>  <TGI>
> 100 µM

$$$$
>  <compound>
c1ccc2c(c1)CCCc1cc3ccccc3nc1-2

>  <TGI>
> 100 µM

$$$$
>  <compound>
O=C(O)c1cc(Cl)cc(NC(=O)C(Cl)Cl)c1Cl

>  <TGI>
> 100 µM

$$$$
>  <compound>
C/C(=N\NS(=O)(=O)c1ccc(C)cc1)c1ccc[n+]([O-])n1

>  <TGI>
> 100 µM

$$$$
>  <compound>
c1ccc(C2=NN3CN(N2)c2ccccc2OCCCOc2ccccc23)cc1

>  <TGI>
> 100 µM

$$$$
>  <compound>
COc1ccc([Se]c2ccc(OC)cc2OC)c(OC)c1

>  <TGI>
> 100 µM

$$$$
>  <compound>
CC(=O)[CH-]C(=O)c1ccccc1.CC(=O)[CH-]C(=O)c1ccccc1.[O]=[U+2]=[O]

>  <TGI>
> 100 µM

$$$$
>  <compound>
O=C(CCCCCCCCCCc1ccccc1)c1c(O)cccc1O

>  <TGI>
34.7 µM

$$$$

API: the following record is the query input.
Noted for COC(=O)C12CC(C3CC31)C1CC12 (centres undefined) : its TGI reads > 100 µM

###

System: 786-0 renal
test protocol: NCI tumour cell line growth inhibition, 48 h
property label: TGI

>  <compound>
O=C(c1ccccc1F)c1c(NCc2ccccc2)c(=O)c1=O

>  <TGI>
> 100 µM

$$$$

// COc1cc[nH]c1/C=C1\C(=O)Nc2ccc(F)c(C#CC3(O)CCOCC3)c21 : TGI value = > 25 µM

Lab note: measured TGI of CCOC(=O)CCC1(C(=O)OC)CCCC1=O (stereo not drawn) was > 100 µM

###

Test system: HL-60(TB) leukemia
test protocol: NCI tumour cell line growth inhibition, 48 h
property label: TGI (µM)
Reply with just the number (in µM).

>  <structure string>
N#Cc1c2c(c(N=[N+]=[N-])n3c1nc1ccccc13)CCCC2

>  <observed result>
8.6

$$$$
>  <structure string>
CCCC/C(=N\N=C(N)N)c1ccc(F)cc1

>  <observed result>
6.09

$$$$
>  <structure string>
O=C1C=C(Nc2cccc(Br)c2)c2ccccc2C1=O

>  <observed result>
34.5

$$$$
>  <structure string>
O=S1(=O)NNC(=NCc2ccc(F)cc2)c2ccccc21

>  <observed result>
19.6

$$$$

The value of TGI measured for the molecule O=C1/C(=C/c2cccc(Oc3ccccc3)c2)N=C(c2ccccc2)N1c1nc2ccc(Sc3ccccc3)cc2[nH]1 turned out to be 49.9

###

System: RXF 393 renal
test protocol: NCI tumour cell line growth inhibition, 48 h
Quick reference: TGI of the listed items.
Please respond with the number in µM and leave the unit unwritten.

Example compounds with recorded TGI:
>  <compound>
O=C(/C=C/N1CCN(c2cccc(C(F)(F)F)c2)CC1)c1ccc(Cl)cc1Cl

>  <endpoint unit>
µM

>  <observed result>
73.4

$$$$
>  <compound>
OC(CC(c1ccccc1)c1ccc(Cl)cc1)c1ccc(Cl)cc1 (centres undefined)

>  <endpoint unit>
µM

>  <observed result>
65.8

$$$$
>  <compound>
CC1Cc2c(N(C)C)ncnc2N(C)c2ccc(Cl)cc21 (centres undefined)

>  <endpoint unit>
µM

>  <observed result>
6.98

$$$$

For the compound COc1cc[nH]c1/C=C1\C(=O)Nc2ccc(F)c(C#CC3(O)CCOCC3)c21 , the measured TGI on RXF 393 renal was 1.01

Log: RXF 393 renal, compound CNc1ccc2nc(-c3ccc(OC(=O)N(C)C)cc3)cn2c1 , TGI = 26.1

Test item O=C(Nc1cccc2nsnc12)c1cc2c(cc1Cl)Sc1nccn1S2(=O)=O ; RXF 393 renal; reported TGI was 18
